Test system: Plasmodium falciparum
Method: Antiplasmodial activity against artemisinin-resistant Plasmodium falciparum Cam 3.1 R539 assessed as growth inhibition by SYBER green 1 dye based fluorescence assay
Format: functional, organism-based
pIC50: −log10 of the molar value.
Listed here are compounds together with their documented pIC50.
Property measured: pIC50

C=C(c1ccc(Cl)c(Cl)c1)C1COC2(OO1)C1CC3CC(C1)CC2C3 (stereo unspecified) = 7.30
C=C(c1ccc(Cl)cc1Cl)C1COC2(OO1)C1CC3CC(C1)CC2C3 (stereo unspecified) = 7.33
C=C(c1ccc(OC)c(F)c1)C1COC2(CCCC2)OO1 (stereo unspecified) = 7.06
C=C(c1ccc(Cl)cc1Cl)C1COC2(CCCC2)OO1 (stereo unspecified) = 7.15
C=C(c1cc(Cl)cc(Cl)c1OCc1ccccc1)C1COC(C)(C)OO1 (stereo unspecified) = 7.76
C=C(c1ccc(OC)c(F)c1)C1COC2(OO1)C1CC3CC(C1)CC2C3 (stereo unspecified) = 7.40
C=C(c1ccc(F)c(F)c1)C1COC2(CCCC2)OO1 (stereo unspecified) = 6.71
C[C@@H]1CC[C@H]2[C@@H](C)C(=O)O[C@@H]3O[C@@]4(C)CC[C@@H]1[C@]32OO4 = 7.87
C=C(c1ccc(F)c(F)c1)C1COC2(OO1)C1CC3CC(C1)CC2C3 (stereo unspecified) = 7.38
C=C(c1ccc(Cl)cc1Cl)C1COC2(CCCCC2)OO1 (stereo unspecified) = 6.96
C=C(c1cc(Cl)cc(Cl)c1OCc1ccccc1)C1COC2(OO1)C1CC3CC(C1)CC2C3 (stereo unspecified) = 7.37

---

Tested on: A549
Method: Anticancer activity against human A549 cells assessed as cell growth inhibition measured for 72 hrs by MTT assay
Format: functional, cell-based
Condition label: A549, 72 h
Property measured: IC50

C=C(c1ccc(F)cc1F)C1COC2(CCCC2)OO1 (stereo unspecified) = 5.09 µM
C=C(c1ccc(Cl)cc1Cl)C1COC(C)(C)OO1 (stereo unspecified) = 92.6 µM
C=C(c1ccc(Cl)c(Cl)c1)C1COC2(CCCCC2)OO1 (stereo unspecified) = 12.8 µM
C=C(c1ccc(F)cc1F)C1COC(C)(C)OO1 (stereo unspecified) = > 100 µM
C=C(c1ccc(F)c(F)c1)C1COC2(CCCC2)OO1 (stereo unspecified) = 11.7 µM
C=C(c1cc(Cl)cc(Cl)c1OCc1ccccc1)C1COC2(CCCC2)OO1 (stereo unspecified) = 2.07 µM
C=C(c1ccc(OC)c(F)c1)C1COC2(CCCCC2)OO1 (stereo unspecified) = 6.53 µM
C=C(c1cc(Cl)cc(Cl)c1OCc1ccccc1)C1COC2(OO1)C1CC3CC(C1)CC2C3 (stereo unspecified) = 31.6 µM
C=C(c1cc(Cl)cc(Cl)c1OCc1ccccc1)C1COC2(CCCCC2)OO1 (stereo unspecified) = > 100 µM
C=C(c1cc(Cl)cc(Cl)c1OCc1ccccc1)C1COC(C)(C)OO1 (stereo unspecified) = 58.4 µM
C=C(c1ccc(F)cc1F)C1COC2(OO1)C1CC3CC(C1)CC2C3 (stereo unspecified) = 4.43 µM

---

Test system: Plasmodium falciparum
Method: Antiplasmodial activity against chloroquine-resistant Plasmodium falciparum INDO assessed as growth inhibition by SYBER green 1 dye based fluorescence assay
Assay type: functional, organism-based
Property measured: IC50

C=C(c1ccc(Cl)c(Cl)c1)C1COC(C)(C)OO1 (centres undefined) = > 100 nM
C=C(c1ccc(Cl)c(Cl)c1Cl)C1COC2(OO1)C1CC3CC(C1)CC2C3 (centres undefined) = 42.1 nM
C=C(c1ccc(F)cc1F)C1COC2(CCCCC2)OO1 (centres undefined) = > 100 nM
C=C(c1ccc(F)c(F)c1)C1COC(C)(C)OO1 (centres undefined) = > 100 nM
C=C(c1ccc(OC)c(F)c1)C1COC2(OO1)C1CC3CC(C1)CC2C3 (centres undefined) = 4.48 nM
C=C(c1ccc(Cl)cc1Cl)C1COC2(OO1)C1CC3CC(C1)CC2C3 (centres undefined) = 15.4 nM
C=C(c1ccc(Cl)cc1Cl)C1COC(C)(C)OO1 (centres undefined) = > 100 nM
C=C(c1ccc(Cl)c(Cl)c1Cl)C1COC(C)(C)OO1 (centres undefined) = > 100 nM
C=C(c1ccc(F)cc1F)C1COC2(OO1)C1CC3CC(C1)CC2C3 (centres undefined) = > 100 nM

All figures here come from ChEMBL document CHEMBL5053494.
